Data provenance is ChEMBL document CHEMBL1201862.

# Tested on: NCI-H226
# ASSAY PROTOCOL: NCI tumour cell line growth inhibition, 48 h
Calls of active or inactive are those of the source. Rule as the data show it: active = GI50 up to about 1.1 µM and inactive = higher.
API: response.call in true (1) = active, false (0) = inactive

Examples with answers:
MOLECULE: Cc1nc(C)c(N2CCN(CN)CC2)c(O)n1
CAT: false (0)

MOLECULE: COC(=O)C1[C@H](c2cc(OC)c(OC)c(OC)c2)OC(=O)C1(C(=O)OC)C(=O)c1ccc2c(c1)OCO2 (some centres undefined)
CAT: false (0)

MOLECULE: O=c1[nH]c(=O)c2c([nH]1)[nH]c1ccc(Br)cc12
CAT: false (0)

MOLECULE: CCC(C#N)N(Cc1ccc(CN(C(=O)c2ccccc2)C(C#N)CC)cc1)C(=O)c1ccccc1 (centres undefined)
CAT: false (0)

MOLECULE: O=C1Oc2ccccc2C(=O)/C1=C/NC(=S)NCc1ccccc1
CAT: false (0)

MOLECULE: NC(=O)Nc1c([N+](=O)[O-])cc(C(F)(F)F)cc1[N+](=O)[O-]
CAT: false (0)

MOLECULE: CN(C)/C=C/C=C(/C=N/S(=O)(=O)C(F)(F)F)C1C=CN(S(=O)(=O)C(F)(F)F)C=C1
CAT: false (0)

MOLECULE: C=CCC(CNC(=O)OCc1ccccc1)O[Si](C)(C)C(C)(C)C (centres undefined)
CAT: false (0)

Prompt: What outcome does the record of this test show for `O=c1[nH]cc(COCCO)c(=O)[nH]1` ?
Completion: false (0)

Prompt: What outcome does the record of this test show for `Cc1ccc2c(ccc(/C=C/c3ccc(O)c4ncccc34)[n+]2C)c1` ?
Completion: false (0)

Prompt: What outcome does the record of this test show for `C[C@H](CN1CC(=O)NC(=O)C1)N1CC(=O)NC(=O)C1` ?
Completion: false (0)

Prompt: What outcome does the record of this test show for C=CCC1(CN(C)C)CC/C(=C\c2cc(OC)c(OC)c(OC)c2)C1=O (centres undefined) ?
Completion: false (0)

Prompt: What outcome does the record of this test show for CNC(=S)N/N=C1\CC(c2ccccc2)Oc2ccccc21 (centres undefined) ?
Completion: false (0)

Prompt: What outcome does the record of this test show for COc1cc2c[n+](C)c3c4cc5c(cc4ccc3c2cc1OC)OCO5 [NITIDINE CHLORIDE] ?
Completion: false (0)

Prompt: What outcome does the record of this test show for COc1cc(S(=O)(=O)Nc2ccc(-c3csc(N4C(=O)C(Cl)C4c4cccs4)n3)cc2)ccc1Cl (centres undefined) ?
Completion: false (0)

Prompt: What outcome does the record of this test show for C=CCNC1=C2C[C@@H](C)C[C@@H](OC)C(OC(=O)CCCN(C)C)[C@H](C)/C=C(\C)[C@@H](OC(N)=O)[C@H](OC)/C=C\C=C(/C)C(=O)NC(=CC1=O)C2=O (some centres undefined) ?
Completion: false (0)

Prompt: What outcome does the record of this test show for `COC(=O)c1cc(CC2Cc3cc4c(cc3C2)CCC4)cc2c1CCC2` ?
Completion: false (0)

Prompt: What outcome does the record of this test show for COc1ccc(C2CCc3cc4c(cc3/C2=N/OC(C)=O)OCO4)cc1OC (centres undefined) ?
Completion: false (0)

Prompt: What outcome does the record of this test show for `Cc1c2c3ccccc3nc-2n(C)c2ccccc12` ?
Completion: false (0)

Prompt: What outcome does the record of this test show for `CC(=O)OC/C=C\Cn1nc(Br)c(=O)[nH]c1=O` ?
Completion: false (0)

Prompt: What outcome does the record of this test show for Cc1cn(C2CC(OC(c3ccccc3)(c3ccccc3)c3ccccc3)C(COC(c3ccccc3)(c3ccccc3)c3ccccc3)O2)c(=O)[nH]c1=O (centres undefined) ?
Completion: false (0)

Prompt: What outcome does the record of this test show for `Clc1ccc(Nc2nnc(CCCCCCCCc3nnc(Nc4ccc(Cl)cc4)o3)o2)cc1` ?
Completion: false (0)

Prompt: What outcome does the record of this test show for O=C(CC(C(=O)c1ccco1)c1ccsc1)c1ccco1 (centres undefined) ?
Completion: false (0)

Prompt: What outcome does the record of this test show for `COP(=O)(OC)[C@@](O)(c1ccccc1)[C@@H](O)[C@@H](O)c1ccccc1` ?
Completion: false (0)

Prompt: What outcome does the record of this test show for CCCCC1(OC(=O)CCC(=O)O)CCC2(CCC(C)C(C/C=C(C)/C=C/C(O)C(C)/C=C/C(=O)O)O2)OC1CC/C(C)=C/C(=O)O (centres undefined) ?
Completion: false (0)

Prompt: What outcome does the record of this test show for CCC1C(=O)OCc2c1cc1n(c2=O)Cc2cc3ccccc3nc2-1 (centres undefined) ?
Completion: false (0)

Prompt: What outcome does the record of this test show for CC(=O)OC1CCn2c1nc1cc([N+](=O)[O-])c(C)cc12 (centres undefined) ?
Completion: false (0)

Prompt: What outcome does the record of this test show for `N=C1N(/N=C/c2ccccn2)/C(=N\c2ccccc2)C(=S)N1c1ccccc1` ?
Completion: false (0)

Prompt: What outcome does the record of this test show for `O=c1[nH]/c(=C/c2ccc(OCc3ccccc3)cn2)c(=O)[nH]/c1=C/c1ccc([N+](=O)[O-])cc1` ?
Completion: false (0)
